Read-out: Vascular cell adhesion molecule 1 (VCAM1), VCAM1 (gene 7412)
Experimental details: BSK_4H_VCAM1: BioMAP Diversity Plus: 4H Assay for Vascular cell adhesion molecule 1 (VCAM1) Biomarker Activity (AID 2283033)
Conditions used: primary human endothelial cells (HUVEC); actives raise or lower the signal
Active and inactive are the calls of the source. Rule for the calls: active = hit-call score of the fitted dose curve at least 0.9, where 1 is the maximum; inactive = score below 0.9.
Recorded endpoint: AC50

[[record]]
compound = "CCCCCCCCC(=O)O"
recorded_endpoint = "AC50"
reported_value = "inactive"

[[record]]
compound = "CCCCC(CC)COC(=O)CCCCC(=O)OCc1ccccc1 (stereo not given)"
recorded_endpoint = "AC50"
reported_value = "inactive"

[[record]]
compound = "CCCCCCCCCCCCc1ccccc1S(=O)(=O)O"
recorded_endpoint = "AC50"
reported_value = "inactive"

[[record]]
compound = "c1ccc2cc3c(ccc4ccccc43)cc2c1"
recorded_endpoint = "AC50"
reported_value = "inactive"

[[record]]
compound = "Cc1oc(-c2ccccc2)nc1CCOc1ccc(C[C@H](Nc2ccccc2C(=O)c2ccccc2)C(=O)O)cc1"
recorded_endpoint = "AC50"
reported_value = "33.5 µM (active)"

[[record]]
compound = "O=c1c(-c2ccc(O)cc2)coc2cc(O)ccc12"
recorded_endpoint = "AC50"
reported_value = "inactive"

[[record]]
compound = "ClC1=C(Cl)C(Cl)(Cl)C(Cl)=C1Cl"
recorded_endpoint = "AC50"
reported_value = "6.5 µM (active)"

[[record]]
compound = "CC(C)CCCCCCOC(=O)CCCCC(=O)OCCCCCCC(C)C"
recorded_endpoint = "AC50"
reported_value = "inactive"

[[record]]
compound = "C[C@@H]1C[C@H]2[C@@H]3CCC4=CC(=O)C=C[C@]4(C)[C@@]3(F)[C@@H](O)C[C@]2(C)[C@@]1(O)C(=O)COP(=O)(O)O"
recorded_endpoint = "AC50"
reported_value = "inactive"

[[record]]
compound = "CCN(CC)CCNc1ccc(CNC=O)c2sc3ccc(OC)cc3c(=O)c12"
recorded_endpoint = "AC50"
reported_value = "30.7 µM (active)"

[[record]]
compound = "CCOC(=O)CC(O)(CC(=O)OCC)C(=O)OCC"
recorded_endpoint = "AC50"
reported_value = "inactive"

[[record]]
compound = "CCCCCCC(=O)O"
recorded_endpoint = "AC50"
reported_value = "inactive"

[[record]]
compound = "Oc1cc2ccccc2c2ccccc12"
recorded_endpoint = "AC50"
reported_value = "8.16 µM (active)"

[[record]]
compound = "CCCCCCCC(=O)O"
recorded_endpoint = "AC50"
reported_value = "inactive"

[[record]]
compound = "O=C(O)Cc1cc(I)c(Oc2cc(I)c(O)c(I)c2)c(I)c1"
recorded_endpoint = "AC50"
reported_value = "19.5 µM (active)"

[[record]]
compound = "CCc1ccc(CCOc2ccc(CC3SC(=O)NC3=O)cc2)nc1 (stereo not given)"
recorded_endpoint = "AC50"
reported_value = "inactive"

[[record]]
compound = "CC(C)(C)c1ccc(O)c(C(C)(C)C)c1"
recorded_endpoint = "AC50"
reported_value = "9.93 µM (active)"

[[record]]
compound = "CCCCCCCCCCCCCCCS(=O)(=O)Oc1ccccc1"
recorded_endpoint = "AC50"
reported_value = "inactive"

[[record]]
compound = "CC#C[C@]1(O)CC[C@H]2[C@@H]3CCC4=CC(=O)CCC4=C3[C@@H](c3ccc(N(C)C)cc3)C[C@@]21C"
recorded_endpoint = "AC50"
reported_value = "26.4 µM (active)"

[[record]]
compound = "OC1CCC(C2CCCCC2)CC1 (stereo not given)"
recorded_endpoint = "AC50"
reported_value = "inactive"

[[record]]
compound = "CN(C)C=O"
recorded_endpoint = "AC50"
reported_value = "inactive"

[[record]]
compound = "OC1CCCCC1"
recorded_endpoint = "AC50"
reported_value = "inactive"

[[record]]
compound = "c1ccc2c(c1)ccc1ccccc12"
recorded_endpoint = "AC50"
reported_value = "inactive"

[[record]]
compound = "NCC(F)(F)C(F)(F)C(F)(F)C(F)(F)C(F)(F)C(F)(F)C(F)(F)F"
recorded_endpoint = "AC50"
reported_value = "inactive"

[[record]]
compound = "C#C[C@]1(O)CC[C@H]2[C@@H]3CCC4=CC(=O)CC[C@@H]4[C@H]3CC[C@@]21C"
recorded_endpoint = "AC50"
reported_value = "inactive"

